# STUDY_TARGET: T1, mPD-1.His (mouse, UniProt Q02242 25-167, limits assumed)
# T1 construct: Soluble analyte, probably the extracellular domain; also called mouse PD-1 (SPR analyte)
# T1 sequence (looked up): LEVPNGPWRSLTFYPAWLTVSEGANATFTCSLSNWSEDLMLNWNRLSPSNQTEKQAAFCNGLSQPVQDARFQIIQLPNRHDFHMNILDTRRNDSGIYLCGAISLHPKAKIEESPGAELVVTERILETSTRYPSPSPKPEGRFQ
# PROCEDURE_TEXT: SPR (ProteOn XPR36), antibody captured on Protein A, PD-1.His as analyte, 1:1 fit
READOUT_LABEL: kon (M⁻¹ s⁻¹)
# output: bare number, implied unit M⁻¹ s⁻¹

**Q:** Entry 1H6 (antibody, human IgG4, V domains shown) VH: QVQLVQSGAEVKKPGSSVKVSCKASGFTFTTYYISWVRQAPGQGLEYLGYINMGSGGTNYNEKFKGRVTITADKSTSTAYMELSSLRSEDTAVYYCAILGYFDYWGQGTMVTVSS VL: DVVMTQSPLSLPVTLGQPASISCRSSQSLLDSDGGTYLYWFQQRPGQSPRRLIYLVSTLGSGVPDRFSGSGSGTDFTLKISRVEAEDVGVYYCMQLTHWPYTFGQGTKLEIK needs its kon filled in; supply it.
**A:** 320000

**Q:** For the binder 2E5 (antibody, human IgG4, V domains shown) VH: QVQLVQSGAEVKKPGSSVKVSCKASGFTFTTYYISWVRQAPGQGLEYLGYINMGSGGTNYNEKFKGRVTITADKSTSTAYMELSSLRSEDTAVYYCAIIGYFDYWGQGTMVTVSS VL: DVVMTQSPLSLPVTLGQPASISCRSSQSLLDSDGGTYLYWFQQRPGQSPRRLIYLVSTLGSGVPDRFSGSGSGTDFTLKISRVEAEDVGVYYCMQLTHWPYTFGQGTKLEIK , report kon.
**A:** 323000

**Q:** Identify measured kon corresponding to 2C2 (antibody, human IgG4, V domains shown) VH: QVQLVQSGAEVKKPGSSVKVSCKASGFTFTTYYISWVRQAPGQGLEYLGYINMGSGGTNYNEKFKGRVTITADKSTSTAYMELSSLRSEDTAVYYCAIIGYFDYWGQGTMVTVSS VL: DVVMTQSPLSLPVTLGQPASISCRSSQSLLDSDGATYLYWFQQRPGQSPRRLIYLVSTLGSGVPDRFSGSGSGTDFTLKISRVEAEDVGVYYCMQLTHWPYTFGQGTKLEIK
**A:** 221000

**Q:** Provide only the value of recorded kon for 2G4 (antibody, human IgG4, V domains shown) VH: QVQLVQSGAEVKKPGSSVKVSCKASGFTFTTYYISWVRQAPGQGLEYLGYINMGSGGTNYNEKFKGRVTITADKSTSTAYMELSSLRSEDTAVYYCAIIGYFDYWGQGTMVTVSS VL: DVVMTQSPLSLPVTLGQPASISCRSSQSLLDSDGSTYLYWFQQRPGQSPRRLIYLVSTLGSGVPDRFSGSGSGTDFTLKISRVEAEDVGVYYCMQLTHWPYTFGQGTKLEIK
**A:** 334000
